Tested on: HCV replicon
Assay: HCV replicon luciferase assay
Format: cell-based
Details: Hepatitis C virus, Huh-7, 72 h
pEC50: −log10 of the molar value.
readout: pEC50

Known pEC50 results, listed for orientation:
CCN(c1cc2oc(-c3ccc(F)cc3)c(C(=O)NC)c2cc1-c1cccc(C(=O)N[C@H]2CCNC2=O)c1)S(C)(=O)=O [Compound 5004]	6.00 to 7.00
CCN(c1cc2oc(-c3ccc(F)cc3)c(C(=O)NC)c2cc1-c1cccc(C(=O)NC2(C(F)(F)F)CCCC2)c1)S(C)(=O)=O [Compound 5002]	8.15

Consider the record given below.
**Q:** I'd like to know its pEC50. The compound in question is CCN(CC)c1cc2oc(-c3ccc(F)cc3)c(C(=O)NC)c2cc1-c1cccc(C(=O)NCC(=N)N)c1 [Compound 1017]
**A:** 6.00 to 7.00
